Reference for the values: patent US20260297129A1

Target: human IL-23R (Homo sapiens)
Sequence (Q5VWK5 24-353 limits assumed): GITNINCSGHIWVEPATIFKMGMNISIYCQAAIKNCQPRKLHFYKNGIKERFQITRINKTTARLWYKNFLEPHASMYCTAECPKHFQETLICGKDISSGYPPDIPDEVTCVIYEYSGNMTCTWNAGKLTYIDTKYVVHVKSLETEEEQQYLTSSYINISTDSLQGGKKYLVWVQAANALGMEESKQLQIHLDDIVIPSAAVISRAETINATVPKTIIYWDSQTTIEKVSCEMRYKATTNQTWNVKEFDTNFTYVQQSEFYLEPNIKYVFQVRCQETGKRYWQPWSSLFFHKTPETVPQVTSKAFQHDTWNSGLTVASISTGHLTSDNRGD
Numbered stars: 1 amine (or outer) side, 2 acyl side, 3 side chain; on linkers, the order of the positions; unused ones are H or OH. Bridge positions count the residues as written; N and C are the ends. Square brackets hold non-standard residues; d marks the D form. Peptide text beside a SMILES is read from it. * marks the point of attachment. Trp(7-Me) = Cc1cccc2c(C[C@H](N)C(=O)O)c[nH]c12; NH(CH2)9CO = O=C(CCCCCCCCCN[*:1])[*:2]; 2Nal = N[C@@H](Cc1ccc2ccccc2c1)C(=O)O; 3Pal = N[C@@H](Cc1cccnc1)C(=O)O; Thp = NC1(C(=O)O)CCOCC1; Me2NCH2CH2 = CN(C)CC*; Aib = CC(C)(N)C(=O)O; Sar = CNCC(=O)O
parameter_measured: pIC50
Convention used: pIC50 is expressed as -log10 of the molar concentration.

// fetch human IL-23R (Homo sapiens) pIC50 for Cc1cccc2c(C[C@@H]3NC(=O)CCCCCCCCCNC(=O)CC[C@@H](C(=O)N[C@@H](CC(N)=O)C(=O)N[C@@H](Cc4cccnc4)C(=O)N(C)CC(N)=O)NC(=O)C(C)(C)NC(=O)[C@H](Cc4ccc5ccccc5c4)NC(=O)[C@H](Cc4ccc(OCCN(C)C)cc4)NC(=O)C4(CCOCC4)NC(=O)[C@H](CCC(N)=O)NC3=O)c[nH]c12 [compound 5] ([NH(CH2)9CO][Trp(7-Me)]Q[Thp]Y(Me2NCH2CH2)[2Nal][Aib]EN[3Pal][Sar]-NH2; lactam N-8) 9.19

* * *

Assay: Solubility of peptide compounds in buffer formulations (Table 5)
Type: physicochemical
Details: aqueous buffer; 50 mM phosphate buffer pH 7.4, 2 h agitation, target 1 mg/ml; read-out: Solubility, Buffer pH 7.4
Numbered stars: 1 amine (or outer) side, 2 acyl side, 3 side chain; on linkers, the order of the positions; unused ones are H or OH. Bridge positions count the residues as written; N and C are the ends. Square brackets hold non-standard residues; d marks the D form. Peptide text beside a SMILES is read from it. * marks the point of attachment. Lys(Me,(CH2)4NMe(CH2)4CO) = CN(CCCCC(=O)[*:3])CCCCN(C)CCCC[C@H](N[*:1])C(=O)[*:2]; Trp(7-Me) = Cc1cccc2c(C[C@H](N)C(=O)O)c[nH]c12; 2Nal = N[C@@H](Cc1ccc2ccccc2c1)C(=O)O; X4 = O=C(CCCCCCCCCCCCCCCN[*:1])[*:2]; 3Pal = N[C@@H](Cc1cccnc1)C(=O)O; Thp = NC1(C(=O)O)CCOCC1; Me2NCH2CH2 = CN(C)CC*; Aib = CC(C)(N)C(=O)O; Sar = CNCC(=O)O
In this section we review reported solubility at 2 h values for a set of compounds.

Previously resolved entries follow.
Field request: solubility at 2 h | item: CC(=O)NCCCC[C@@H]1NC(=O)[C@H](Cc2c[nH]c3c(C)cccc23)NC(=O)CCCCN(C)CCCCN(C)CCCC[C@@H](C(=O)N[C@@H](CC(N)=O)C(=O)N[C@@H](Cc2cccnc2)C(=O)N(C)CC(N)=O)NC(=O)C(C)(C)NC(=O)[C@H](Cc2ccc3ccccc3c2)NC(=O)[C@H](Cc2ccc(OCCN(C)C)cc2)NC(=O)C2(CCOCC2)NC1=O [compound 32] ([Trp(7-Me)]K(Ac)[Thp]Y(Me2NCH2CH2)[2Nal][Aib][Lys(Me,(CH2)4NMe(CH2)4CO)]N[3Pal][Sar]-NH2; lactam N-7) ≥ 1120 µg/mL

Bench note: what solubility at 2 h did CC(=O)NCCCC[C@@H]1NC(=O)[C@H](Cc2c[nH]c3ccccc23)NC(=O)CCCCN(C)CCCCN(C)CCCC[C@@H](C(=O)N[C@@H](CO)C(=O)N[C@@H](Cc2cccnc2)C(=O)N(C)CC(N)=O)NC(=O)C(C)(C)NC(=O)[C@H](Cc2ccc3ccccc3c2)NC(=O)[C@H](Cc2ccc(OCCN(C)C)cc2)NC(=O)C2(CCOCC2)NC1=O [compound 42] (WK(Ac)[Thp]Y(Me2NCH2CH2)[2Nal][Aib][Lys(Me,(CH2)4NMe(CH2)4CO)]S[3Pal][Sar]-NH2; lactam N-7) show? ≥ 1040 µg/mL

Moving on to the next compound.
Fill in the blank: the reported solubility at 2 h of Cc1cccc2c(C[C@@H]3NC(=O)CCCCCCCCCCCCCCCNC(=O)CC[C@@H](C(=O)N[C@@H](CC(N)=O)C(=O)N[C@@H](Cc4cccnc4)C(=O)N(C)CC(N)=O)NC(=O)C(C)(C)NC(=O)[C@H](Cc4ccc5ccccc5c4)NC(=O)[C@H](Cc4ccc(OCCN(C)C)cc4)NC(=O)C4(CCOCC4)NC(=O)[C@H](CCC(N)=O)NC3=O)c[nH]c12 [compound 3] ([X4][Trp(7-Me)]Q[Thp]Y(Me2NCH2CH2)[2Nal][Aib]EN[3Pal][Sar]-NH2; lactam N-8) is ____. < 10 µg/mL
